Origin of the recorded values: PubChem BioAssay (NCI)

Attribute: TGI
# Tested on: A549 NSCLC
# method-notes: NCI tumour cell line growth inhibition, 48 h

{"molecule": "COc1cc(C23OCC(Cc4cc5c(cc42)OCO5)C3CO)cc(OC)c1OC (stereo not drawn)", "TGI": "> 100 µM"}
{"molecule": "CC(=O)Oc1c2oc3cc(O)c(O)cc3c2c(OC(C)=O)c2oc3cc(O)c(O)cc3c12", "TGI": "> 100 µM"}
{"molecule": "CSc1nc(NC2OC(COC(C)=O)C(OC(C)=O)C(OC(C)=O)C2OC(C)=O)c(N=C(C)C(C)=O)c(=O)n1C (stereo not drawn)", "TGI": "> 100 µM"}
